System: TK-10 renal
Experiment: NCI-60 one-dose screen, 48 h
Conditions: 10 µM unless noted
About 83,000 compounds went through this panel and 20% of them were active in at least one assay; those are over-represented in the sample as a whole. Active and inactive are the calls of the source. Rule for the calls: active = growth percent below 10; inactive = the rest.
Response enum: active, inactive

[ask] Kindly provide the recorded test outcome for the following compound: `CC[C@]12C=CCN3CC[C@@]4(c5ccc(OC)cc5N(C)[C@H]4[C@@](O)(C(=O)OC)[C@@H]1OC(=O)CCC(=O)N[C@H](Cc1c[nH]c4ccccc14)C(=O)OC)[C@@H]32`
[reply] active

[ask] Kindly provide the recorded test outcome for the following compound: `CC(C)(C)OC(=O)N1C=C/C(=C\Cn2cc(-c3ccccc3)nn2)CC1`
[reply] inactive

[ask] Kindly provide the recorded test outcome for the following compound: CCCCCCCCCN(CCCCCCCCC)C(C)C(=O)c1ccc2cc(Br)c3ccccc3c2c1 (stereo not given)
[reply] inactive

[ask] Kindly provide the recorded test outcome for the following compound: `Cc1cc(SC#N)ncn1`
[reply] inactive

[ask] Kindly provide the recorded test outcome for the following compound: CCN(CC)CCCC(C)Nc1ccnc2cc(Cl)c(SCc3ccccc3)cc12 (stereo not given)
[reply] active

[ask] Kindly provide the recorded test outcome for the following compound: `COc1ccc2[nH]c(C(=O)N3CCN(C(=O)OCc4ccc5c(Br)cc(Br)c(O)c5n4)CC3)cc2c1`
[reply] active

[ask] Kindly provide the recorded test outcome for the following compound: `O=C(COc1cccc(/C=C2\Oc3ccccc3C2=O)c1)c1ccc([N+](=O)[O-])cc1`
[reply] inactive

[ask] Kindly provide the recorded test outcome for the following compound: `Cc1cc[n+](CCCCCCCCCC[n+]2ccc(C)cc2)cc1`
[reply] inactive

[ask] Kindly provide the recorded test outcome for the following compound: `COc1ncc(-c2ccc3nccc(C#CCCCCC(=O)NO)c3c2)cc1NS(=O)(=O)c1ccc(F)cc1F`
[reply] active

[ask] Kindly provide the recorded test outcome for the following compound: `COc1ccc(/C=C2\N=C(Nc3ccccc3)N(NC(=O)c3ccccn3)C2=O)cc1`
[reply] inactive

[ask] Kindly provide the recorded test outcome for the following compound: `Oc1ccc(N=Nc2nccs2)c(O)c1`
[reply] inactive

[ask] Kindly provide the recorded test outcome for the following compound: CC1Cc2ccc(OCCN(C)C)cc2C1=O (stereo not given)
[reply] inactive

[ask] Kindly provide the recorded test outcome for the following compound: `Cn1cc(-c2nnc(-c3ccccc3)s2)c2cc(Br)cnc21`
[reply] inactive

[ask] Kindly provide the recorded test outcome for the following compound: CCOC(=O)c1nn(C2CCCCO2)c2ccc(NC(=O)Cn3nnc4ccccc43)cc12 (stereo not given)
[reply] inactive

[ask] Kindly provide the recorded test outcome for the following compound: `O=C(OCc1ccc2c(Cl)cc(Cl)c(O)c2n1)N1CCNCC1`
[reply] inactive

---

Tested on: CCRF-CEM leukemia
Test: NCI-60 one-dose screen, 48 h
Conditions: 10 µM unless noted
This is part of a sample that, as a whole, favours compounds with a hit. Of some 83,000 tested, about 20% had one in any assay. The source made the active and inactive calls. Rule for the calls: active = growth percent below 10; inactive = the rest.
Response enum: T for active, F for inactive

[ask] Kindly provide the recorded test outcome for the following compound: `CC1(C)[C@@H](NOCCCN)CC[C@]2(C)[C@H]3C(=O)C=C4[C@@H]5C[C@](C)(C(=O)O)CC[C@]5(C)CC[C@@]4(C)[C@]3(C)CC[C@@H]12`
[reply] F

[ask] Kindly provide the recorded test outcome for the following compound: `C=CCCCCOc1ccccc1-c1cnc(OCCCCC=C)n1C`
[reply] F

[ask] Kindly provide the recorded test outcome for the following compound: `CC1=CC[C@@H]2C(C)(C)[C@@H](O)CC[C@@]2(C)[C@@H]1COc1ccc2ccc(=O)oc2c1`
[reply] F

[ask] Kindly provide the recorded test outcome for the following compound: `c1coc2occoc=2o1`
[reply] F

[ask] Kindly provide the recorded test outcome for the following compound: `Cc1nn(-c2ccccc2)c(N2CCOCC2)c1-c1nc2ccc([N+](=O)[O-])cc2[nH]1`
[reply] F

[ask] Kindly provide the recorded test outcome for the following compound: `Nn1c(Nc2ccc(S(=O)(=O)Nc3ncccn3)cc2)nnc(/C=C/c2c(O)ccc3ccccc23)c1=O`
[reply] F

[ask] Kindly provide the recorded test outcome for the following compound: `C#CCNC(=O)CC[C@]1(C)[C@H]2CC[C@@H]3[C@@H]([C@@](C)(O)CCC=C(C)C)CC[C@@]3(C)[C@]2(C)CC[C@H]1C(=C)C`
[reply] T

[ask] Kindly provide the recorded test outcome for the following compound: `CC1(C)C(=O)/C(=C\c2cccnc2)C[C@]2(C)[C@H]3CC[C@@H]4[C@H]5[C@H](C(=O)/C=C/c6cccnc6)CC[C@]5(C(=O)O)CC[C@@]4(C)[C@]3(C)CC[C@@H]12`
[reply] T

[ask] Kindly provide the recorded test outcome for the following compound: `Brc1ccc2c(c1)CN(C1CCCCC1)CO2`
[reply] F

[ask] Kindly provide the recorded test outcome for the following compound: `CCOC(=O)C(=Cc1ccccc1[N+](=O)[O-])C(=O)OCC`
[reply] T

[ask] Kindly provide the recorded test outcome for the following compound: COc1ccc(C2NC(=O)C(C#N)c3c2sc2c(F)cccc32)cc1 (configuration not stated)
[reply] F

[ask] Kindly provide the recorded test outcome for the following compound: `O=C(Nc1cccc2cccnc12)c1cc(C(=O)c2ccc(Cl)cc2)n2ccc(-c3ccncc3)cc12`
[reply] F
